Source: patent US20150104448A1

Tested System: T1, purified human activated C1s protein, two-chain form (Homo sapiens, UniProt P09871 16-688)
T1 construct: Also used here for C1s acting in human serum assays; also called human C1s; active C1s
T1 sequence: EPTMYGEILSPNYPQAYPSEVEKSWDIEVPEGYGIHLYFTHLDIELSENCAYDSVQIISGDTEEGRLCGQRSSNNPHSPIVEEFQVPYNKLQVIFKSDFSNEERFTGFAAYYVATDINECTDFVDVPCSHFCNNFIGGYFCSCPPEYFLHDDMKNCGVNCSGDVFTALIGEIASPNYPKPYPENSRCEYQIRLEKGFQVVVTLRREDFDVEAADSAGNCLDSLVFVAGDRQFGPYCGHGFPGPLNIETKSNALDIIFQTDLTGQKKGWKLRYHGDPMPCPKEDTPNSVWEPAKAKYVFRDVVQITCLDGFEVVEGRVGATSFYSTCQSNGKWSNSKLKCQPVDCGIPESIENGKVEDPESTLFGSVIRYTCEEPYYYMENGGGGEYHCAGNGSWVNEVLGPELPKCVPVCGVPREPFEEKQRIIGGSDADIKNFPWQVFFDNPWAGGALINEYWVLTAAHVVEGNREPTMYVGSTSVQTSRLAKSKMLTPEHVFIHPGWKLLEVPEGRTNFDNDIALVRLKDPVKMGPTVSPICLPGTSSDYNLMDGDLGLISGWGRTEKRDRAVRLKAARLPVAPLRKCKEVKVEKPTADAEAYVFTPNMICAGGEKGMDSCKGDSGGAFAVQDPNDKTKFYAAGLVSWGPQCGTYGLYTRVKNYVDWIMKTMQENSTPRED
Assay Protocol: kinetic binding measurement, method not stated; Table 9, activated C1s
Measured Property: koff (s⁻¹)
Dear colleague, please return just the value in s⁻¹, with no unit written.

Please review the entries below; each comes with its answer.
>  <Binder>
VH3/Vk3 (antibody, V domains shown, member of group m7; also called VH3/Vκ3; VH variant 3 + Vk variant 3) VH: EVMLVESGGGLVKPGGSLRLSCAASGFTFSNYAMSWVRQAPGKGLEWVATISSGGSHTYYLDSVKGRFTISRDNSKDTLYLQMSSLRAEDTALYYCARLFTGYAMDYWGQGTSVTVSS VL: QIVLTQSPATLSLSPGERATLSCTASSSVSSSYLHWYQQKPGKAPKLWIYSTSNLASGVPSRFSGSGSGTDYTLTISSLQPEDFATYYCHQYYRLPPITFGQGTKLEIK

>  <Result Value>
0.00036

$$$$
>  <Binder>
VH4/Vk3 (antibody, V domains shown, member of group m7; also called VH4/Vκ3; VH variant 4 + Vk variant 3) VH: EVQLVESGGGLVKPGGSLRLSCAASGFTFSNYAMSWVRQAPGKGLEWVATISSGGSHTYYLDSVKGRFTISRDNSKNTLYLQMNSLRAEDTALYYCARLFTGYAMDYWGQGTLVTVSS VL: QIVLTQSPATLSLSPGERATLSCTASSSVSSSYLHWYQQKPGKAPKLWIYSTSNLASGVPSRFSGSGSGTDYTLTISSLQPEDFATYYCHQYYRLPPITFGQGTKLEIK

>  <Result Value>
0.00031

$$$$

// next item, koff requested
Which koff value is on record for VH1/Vk1 (antibody, V domains shown, member of group m7; also called VH1/Vκ1; VH variant 1 + Vk variant 1) VH: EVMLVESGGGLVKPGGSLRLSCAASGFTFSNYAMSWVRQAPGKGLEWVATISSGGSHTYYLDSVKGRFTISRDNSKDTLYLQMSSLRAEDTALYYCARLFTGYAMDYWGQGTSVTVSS VL: QIVLTQSPAILSLSPGERATMSCTASSSVSSSYLHWYQQKPGKAPKLWIYSTSNLASGVPSRFSGSGSGTFYTLTISSLQAEDFATYYCHQYYRLPPITFGQGTKLEIK ?
0.000228
